# credit: patent US12338262B2

Measured IC50 of individual entries
Molecular target: UniProtKB P01375
Assay: TNF-α Induced HEK Blue Cellular Assay
Settings: HEK Blue TNFα reporter cells, TNF-α 100 pg/ml, 24 hrs at 37° C., secreted alkaline phosphatase (QUANTI-Blue, 620 nm)

                            chemical_string  result
0  Cc1nc2cc(F)c(-c3ccc(P(C)(C)=O)c(F)c3)nc2c(N[C@H](C)c2cccc(Cl)c2F)c1Cl  ≤ 1 µM

Could you tell me which IC50 is on file for `Cc1nc2cc(F)c(-c3ccc(P(C)(C)=O)nc3)nc2c(N[C@H](CO)c2ccccc2F)c1Cl` ? 10 to 30 µM

Consider the compound shown here: `C[C@@H](Nc1c(Cl)cnc2cc(F)c(-c3cnc(P(C)(C)=O)nc3)nc12)c1cc(C#N)ccc1F` What is its recorded IC50? ≤ 1 µM

So what's the measured IC50 for this one? `Cc1nc2cc(F)c(-c3ccc(P(C)(C)=O)nc3)nc2c(N[C@H](C)c2cc(C#N)cc(F)c2F)c1Cl` ≤ 0.1 µM

I'd like to know its IC50. The compound in question is `Cc1nc2cc(F)c(-c3cnc(P(C)(C)=O)nc3)nc2c(N[C@H](C)c2cccc(C#N)c2)c1Cl` ≤ 0.1 µM

* * *

Target: UniProt:P01375
Experiment: TNF-α Induced HEK Blue Cellular Assay
Settings: HEK Blue TNFα reporter cells, TNF-α 100 pg/ml, 24 hrs at 37° C., secreted alkaline phosphatase (QUANTI-Blue, 620 nm)
pIC50: −log10 of the molar value.
ASSAY_METRIC: pIC50

>>> df
                                   molecule  result
0  Cc1nc2cc(F)c(-c3ccc(P(C)(C)=O)nc3)nc2c(N[C@H](c2ccccc2)C2CC2)c1Cl [Example 140]  ≥ 6.00

Need pIC50, item CC[C@@H](Nc1c(Cl)c(C)nc2cc(F)c(-c3cnc(P(C)(C)=O)nc3)cc12)c1cccc(F)c1F [Example 114] ≥ 7.00

Fill in the blank: the reported pIC50 of CC[C@@H](Nc1c(Cl)c(C)nc2cc(F)c(-c3cnc(OCP(C)(C)=O)nc3)nc12)c1cccc(F)c1F [Example 125] is ____. ≥ 6.00

Data request, read-out pIC50, for Cc1nc2cc(F)c(-c3ccc(P(C)(C)=O)nc3)cc2c(N[C@@H](C)c2cncnc2)c1Cl (single isomer, unassigned) [Example 101] 4.52 to 5.00

* * *

Biological target: TNF-α (Homo sapiens, UniProt P01375)
Sequence (P01375 77-233 limits assumed): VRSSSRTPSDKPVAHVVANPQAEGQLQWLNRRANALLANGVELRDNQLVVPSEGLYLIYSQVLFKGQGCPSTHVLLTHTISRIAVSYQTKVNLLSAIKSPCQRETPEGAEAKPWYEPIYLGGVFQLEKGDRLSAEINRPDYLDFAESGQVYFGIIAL
Assay: TNF-α Induced HEK Blue Cellular Assay
Settings: HEK Blue TNFα reporter cells, TNF-α 100 pg/ml, 24 hrs at 37° C., secreted alkaline phosphatase (QUANTI-Blue, 620 nm)
pIC50: −log10 of the molar value.
Below: a set of entries, each annotated with reported pIC50.

Solved entries (count: 4):
                            chemical_string  result
0  Cc1nc2cc(F)c(-c3ccc(P(C)(C)=O)nc3)cc2c(N[C@H](C)c2ccccc2F)c1Cl  ≥ 7.00
1  Cc1nc2cc(F)c(-c3cnc(P(C)(C)=O)nc3)nc2c(N[C@H](C)c2cc(C#N)cc(F)c2F)c1Cl  ≥ 6.00
2  Cc1nc2cc(F)c(-c3ccc(OCP(C)(C)=O)nc3)nc2c(N[C@H](C)c2ccccc2F)c1Cl  ≥ 7.00
3  Cc1nc2cc(F)c(-c3cnc(P(C)(C)=O)c(F)c3)cc2c(N[C@H](C)c2cccc(F)c2F)c1Cl  ≥ 7.00

Consider now this further compound.
What does the data say about its pIC50? Entry: `Cc1nc2cc(F)c(-c3cnc(P(C)(C)=O)nc3)nc2c(N[C@@H](c2ccccc2F)C(F)(F)F)c1Cl` ≥ 6.00
